TEST_TARGET: recombinant human HDACs (Homo sapiens)
ASSAY_INFO: HDAC enzymatic assay
Type: biochemical
CONDITION: 5 nM HDAC enzyme, 5 h pre-incubation, 17 h reaction at 25° C.; isoform not given; read-out: IC50
pIC50: −log10 of the molar value.
// values below are reported pIC50

CN1CC(n2cc3c(n2)CN(C(=O)Nc2nc(-c4ccc(F)cc4)ccc2N)C3)C1 [Compound 247]	6.30 to 7.00
CN1CCN(c2cc3c(cn2)CN(C(=O)Nc2nc(-c4ccc(F)cc4)ccc2N)C3)CC1 [Compound 160]	6.30 to 7.00
Nc1ccc(-c2ccc(F)cc2)nc1NC(=O)N1C[C@@H]2[C@@H](CN3CCC3)[C@@H]2C1 [Compound 270]	< 5.30
Nc1ccc(-c2ccc(F)cc2)nc1NC(=O)N1Cc2cc(CN3CCCC3)cnc2C1 [Compound 155]	6.30 to 7.00
Nc1ccc(-c2ccc(F)cc2)nc1NC(=O)N1CCC(F)(F)C1 [Compound 364]	5.30 to 6.30

# input Answer with reported pIC50 of Nc1ccc(-c2ccc(F)cc2)nc1NC(=O)N1CC2CC(N3CCOCC3)CC2C1 (stereo not drawn) [Compound 181]
# output < 5.30
